EXPERIMENT NOTES: Plasma concentration in spontaneously hypertensive rat plasma at 300 mg/kg, after 5 hrs
Type: ADME, organism-based
Set-up: dose 300 mg/kg
READOUT: concentration at 5 h (nM)
I only need the number, in nM, no unit after it.

Ask: Which value of concentration at 5 h has been reported for O=C1CC2(CCN(C(=O)N[C@H]3C[C@@H]3c3ccccc3)CC2)Oc2ccccc21 (racemic) in the records?
Reply: 2700

====

EXPERIMENTAL TARGET: Bifunctional epoxide hydrolase 2 (Homo sapiens)
EXPERIMENT NOTES: Inhibition of human soluble epoxide hydrolase in HEK293 cells assessed as DHET production
Format: cell-based
MEASUREMENT CONDITIONS: hek293
READOUT: pIC50
// pIC50: -log10(molar conc.)

Ask: Recorded pIC50 for O=C1CC2(CCN(C(=O)N[C@H]3C[C@@H]3c3ccccc3)CC2)Oc2ccccc21 (relative stereo) with Bifunctional epoxide hydrolase 2 (Homo sapiens), please?
Reply: 8.52

====

EXPERIMENTAL TARGET: Voltage-dependent L-type calcium channel subunit alpha-1C (Homo sapiens, UniProt Q13936)
Sequence (Q13936 whole entry): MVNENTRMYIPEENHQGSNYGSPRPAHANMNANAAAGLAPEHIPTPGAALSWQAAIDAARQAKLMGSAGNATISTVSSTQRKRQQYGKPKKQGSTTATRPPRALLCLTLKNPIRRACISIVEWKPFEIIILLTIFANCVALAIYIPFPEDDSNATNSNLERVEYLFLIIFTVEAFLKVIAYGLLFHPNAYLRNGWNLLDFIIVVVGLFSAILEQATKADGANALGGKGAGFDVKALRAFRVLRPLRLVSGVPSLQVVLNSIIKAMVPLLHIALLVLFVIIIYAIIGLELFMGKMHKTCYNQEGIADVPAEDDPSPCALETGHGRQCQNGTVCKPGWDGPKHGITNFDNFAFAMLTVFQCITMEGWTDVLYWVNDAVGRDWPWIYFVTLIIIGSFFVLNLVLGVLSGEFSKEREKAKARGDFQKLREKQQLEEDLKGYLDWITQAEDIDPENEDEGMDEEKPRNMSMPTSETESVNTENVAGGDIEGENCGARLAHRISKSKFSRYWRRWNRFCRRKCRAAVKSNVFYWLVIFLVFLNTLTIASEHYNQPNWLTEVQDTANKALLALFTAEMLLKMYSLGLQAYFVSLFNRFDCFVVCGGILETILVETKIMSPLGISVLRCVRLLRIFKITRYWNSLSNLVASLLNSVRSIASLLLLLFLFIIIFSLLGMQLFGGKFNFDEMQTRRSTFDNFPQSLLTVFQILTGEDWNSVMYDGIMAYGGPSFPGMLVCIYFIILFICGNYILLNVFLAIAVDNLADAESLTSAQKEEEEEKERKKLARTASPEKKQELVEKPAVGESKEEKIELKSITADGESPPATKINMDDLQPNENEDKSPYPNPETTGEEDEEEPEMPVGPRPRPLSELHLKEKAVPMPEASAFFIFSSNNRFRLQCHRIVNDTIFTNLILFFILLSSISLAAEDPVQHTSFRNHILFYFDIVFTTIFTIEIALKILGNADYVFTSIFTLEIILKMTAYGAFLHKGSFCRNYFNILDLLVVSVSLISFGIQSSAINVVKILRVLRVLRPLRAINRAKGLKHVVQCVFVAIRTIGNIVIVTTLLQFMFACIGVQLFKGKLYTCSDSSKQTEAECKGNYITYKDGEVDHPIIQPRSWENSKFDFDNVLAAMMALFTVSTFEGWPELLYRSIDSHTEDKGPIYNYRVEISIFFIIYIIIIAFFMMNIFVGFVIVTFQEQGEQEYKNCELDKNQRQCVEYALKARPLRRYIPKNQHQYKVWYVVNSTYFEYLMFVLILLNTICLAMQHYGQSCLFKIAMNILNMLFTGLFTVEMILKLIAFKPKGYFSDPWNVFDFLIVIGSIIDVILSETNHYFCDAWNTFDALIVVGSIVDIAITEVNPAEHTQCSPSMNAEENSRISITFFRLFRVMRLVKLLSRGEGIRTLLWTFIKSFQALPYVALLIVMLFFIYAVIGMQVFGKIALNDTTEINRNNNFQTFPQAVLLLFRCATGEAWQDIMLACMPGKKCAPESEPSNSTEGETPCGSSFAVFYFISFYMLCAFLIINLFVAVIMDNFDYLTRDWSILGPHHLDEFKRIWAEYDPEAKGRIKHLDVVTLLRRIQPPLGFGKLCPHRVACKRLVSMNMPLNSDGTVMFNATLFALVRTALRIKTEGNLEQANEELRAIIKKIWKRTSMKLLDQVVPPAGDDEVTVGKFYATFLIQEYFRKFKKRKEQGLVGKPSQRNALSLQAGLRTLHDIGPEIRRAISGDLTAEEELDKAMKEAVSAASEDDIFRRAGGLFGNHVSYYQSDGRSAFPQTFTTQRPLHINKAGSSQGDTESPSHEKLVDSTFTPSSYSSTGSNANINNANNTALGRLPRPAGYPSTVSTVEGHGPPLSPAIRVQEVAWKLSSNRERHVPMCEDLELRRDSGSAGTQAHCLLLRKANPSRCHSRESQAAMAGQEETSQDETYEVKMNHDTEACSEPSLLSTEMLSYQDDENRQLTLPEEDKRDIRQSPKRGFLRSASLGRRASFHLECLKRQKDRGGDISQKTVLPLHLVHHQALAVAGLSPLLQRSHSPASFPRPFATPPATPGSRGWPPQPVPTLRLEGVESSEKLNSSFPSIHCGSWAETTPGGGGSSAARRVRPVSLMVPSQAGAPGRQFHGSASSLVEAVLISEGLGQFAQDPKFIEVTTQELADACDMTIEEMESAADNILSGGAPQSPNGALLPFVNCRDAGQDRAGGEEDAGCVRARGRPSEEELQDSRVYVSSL
EXPERIMENT NOTES: Activity at Cav 1.2 channel
READOUT: IC50 (µM)
I only need the number, in µM, no unit after it.

[
  {
    "MOLECULE": "Cn1nccc1Nc1ccc2c(c1)C(=O)CC1(CCN(C(=O)N[C@H]3C[C@@H]3c3ccccc3)CC1)O2 (racemic)",
    "EXPERIMENTAL TARGET": "Voltage-dependent L-type calcium channel subunit alpha-1C (Homo sapiens, UniProt Q13936)",
    "IC50, µM": 26
  },
  {
    "MOLECULE": "Cn1nccc1-c1ccc2c(c1)C(=O)CC1(CCN(C(=O)N[C@H]3C[C@@H]3c3ccccc3)CC1)O2 (racemic)",
    "EXPERIMENTAL TARGET": "Voltage-dependent L-type calcium channel subunit alpha-1C (Homo sapiens, UniProt Q13936)",
    "IC50, µM": 28
  }
]

Turning now to a further molecule:
Ask: Recorded IC50 for O=C(N[C@H]1C[C@@H]1c1ccccc1)N1CCC2(CCc3ncccc3O2)CC1 (relative stereo) with Voltage-dependent L-type calcium channel subunit alpha-1C (Homo sapiens, UniProt Q13936), please?
Reply: 20

====

EXPERIMENT NOTES: Plasma concentration in spontaneously hypertensive rat plasma at 300 mg/kg, after 24 hrs
Format: ADME, organism-based
Set-up: dose 300 mg/kg
READOUT: concentration at 24 h

Ask: Which value of concentration at 24 h has been reported for O=C1CC2(CCN(C(=O)N[C@H]3C[C@@H]3c3ccccc3)CC2)Oc2ccccc21 (racemic) in the records?
Reply: 1700 nM

====

EXPERIMENTAL TARGET: Bifunctional epoxide hydrolase 2 (Homo sapiens, UniProt P34913)
Sequence (P34913 whole entry): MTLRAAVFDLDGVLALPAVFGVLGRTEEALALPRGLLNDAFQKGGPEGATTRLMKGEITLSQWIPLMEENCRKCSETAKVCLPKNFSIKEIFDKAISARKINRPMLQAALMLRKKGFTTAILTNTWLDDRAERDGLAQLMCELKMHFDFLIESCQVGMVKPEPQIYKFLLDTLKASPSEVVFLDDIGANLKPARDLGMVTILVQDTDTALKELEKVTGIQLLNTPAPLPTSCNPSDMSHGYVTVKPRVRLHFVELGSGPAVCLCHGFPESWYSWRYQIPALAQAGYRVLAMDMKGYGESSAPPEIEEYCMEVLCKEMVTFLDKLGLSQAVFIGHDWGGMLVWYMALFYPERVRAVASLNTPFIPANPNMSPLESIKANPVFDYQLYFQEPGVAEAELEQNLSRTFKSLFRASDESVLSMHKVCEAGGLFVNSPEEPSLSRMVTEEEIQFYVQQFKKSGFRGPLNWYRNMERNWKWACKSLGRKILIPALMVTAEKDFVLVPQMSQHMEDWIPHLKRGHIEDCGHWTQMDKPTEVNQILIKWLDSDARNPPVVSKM
EXPERIMENT NOTES: Inhibition of human soluble epoxide hydrolase in HEK293 cells assessed as DHET production
Format: cell-based
READOUT: IC50 (nM)
I only need the number, in nM, no unit after it.

[
  {
    "COMPOUND": "O=C(CCc1ccccc1)N1CCC2(CCc3cc(F)ccc3O2)CC1",
    "EXPERIMENTAL TARGET": "Bifunctional epoxide hydrolase 2 (Homo sapiens, UniProt P34913)",
    "VALUE UNITS": "nM",
    "IC50": 3
  }
]

Ask: Which value of IC50 has been reported for `O=C1CC2(CCN(C(=O)N[C@H]3C[C@@H]3c3ccccc3)CC2)Oc2ccccc21` in the records?
Reply: 3

Ask: Which value of IC50 has been reported for CS(=O)(=O)c1ccc2c(c1)CCC1(CCCN(C(=O)N[C@H]3C[C@@H]3c3ccccc3)CC1)O2 (relative stereo) in the records?
Reply: 3

Ask: Which value of IC50 has been reported for O=C(N[C@H]1C[C@@H]1c1ccccc1)N1CCC2(CC1)CC(O)c1ncccc1O2 (relative stereo) in the records?
Reply: 8

Ask: Which value of IC50 has been reported for O=C1CC2(CCN(C(=O)NC3CCc4ccccc43)CC2)Oc2ccccc21 (racemic) in the records?
Reply: 30

Ask: Which value of IC50 has been reported for O=C1CC2(CCN(C(=O)N[C@H]3C[C@@H]3c3ccccc3)CC2)Oc2cccnc21 (relative stereo) in the records?
Reply: 4

====

EXPERIMENTAL TARGET: Bifunctional epoxide hydrolase 2 (Homo sapiens)
EXPERIMENT NOTES: Inhibition of human soluble epoxide hydrolase
READOUT: IC50 (nM)
I only need the number, in nM, no unit after it.

[
  {
    "COMPOUND": "O=C(N[C@H]1C[C@@H]1c1ccccc1)N1CCC2(CCc3cc(F)ccc3O2)CC1 (racemic)",
    "VALUE UNITS": "nM",
    "IC50": 3
  },
  {
    "COMPOUND": "Cn1nccc1-c1ccc2c(c1)C(=O)CC1(CCN(C(=O)N[C@H]3C[C@@H]3c3ccccc3)CC1)O2 (racemic)",
    "VALUE UNITS": "nM",
    "IC50": 4
  },
  {
    "COMPOUND": "Cn1nccc1Nc1ccc2c(c1)C(=O)CC1(CCN(C(=O)N[C@H]3C[C@@H]3c3ccccc3)CC1)O2 (racemic)",
    "VALUE UNITS": "nM",
    "IC50": 3
  }
]

Ask: Recorded IC50 for `CS(=O)(=O)c1ccc2c(c1)CCC1(CCN(C(=O)c3ccc(C(F)(F)F)cc3)CC1)O2` with Bifunctional epoxide hydrolase 2 (Homo sapiens), please?
Reply: 2

====

EXPERIMENTAL TARGET: Bifunctional epoxide hydrolase 2 (Rattus norvegicus)
Sequence (P80299 whole entry): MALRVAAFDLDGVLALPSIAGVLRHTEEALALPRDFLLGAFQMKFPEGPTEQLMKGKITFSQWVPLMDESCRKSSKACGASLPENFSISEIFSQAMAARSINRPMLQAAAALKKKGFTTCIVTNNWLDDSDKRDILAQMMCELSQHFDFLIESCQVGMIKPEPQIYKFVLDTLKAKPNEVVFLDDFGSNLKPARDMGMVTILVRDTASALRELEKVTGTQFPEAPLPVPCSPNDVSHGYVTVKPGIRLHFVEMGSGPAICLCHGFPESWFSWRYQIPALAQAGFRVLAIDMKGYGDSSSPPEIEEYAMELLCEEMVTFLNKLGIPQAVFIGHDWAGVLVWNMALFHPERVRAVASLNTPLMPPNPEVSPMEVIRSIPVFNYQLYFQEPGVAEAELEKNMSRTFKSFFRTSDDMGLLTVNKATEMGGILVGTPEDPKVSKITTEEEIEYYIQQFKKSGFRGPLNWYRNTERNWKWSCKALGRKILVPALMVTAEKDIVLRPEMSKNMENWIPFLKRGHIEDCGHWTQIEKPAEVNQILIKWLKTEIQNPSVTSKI
EXPERIMENT NOTES: Inhibition of rat soluble epoxide hydrolase
READOUT: pIC50
// pIC50: -log10(molar conc.)

As a guide, the following entries are already answered.
[
  {
    "COMPOUND": "O=C1CC2(CCN(C(=O)NC3CCc4ccccc4C3)CC2)Oc2ccccc21 (racemic)",
    "READOUT": "pIC50",
    "OBSERVED": 7.41
  },
  {
    "COMPOUND": "O=C(N[C@H]1C[C@@H]1c1ccccc1)N1CCC2(CCc3ccccc3O2)CC1 (racemic)",
    "READOUT": "pIC50",
    "OBSERVED": 7.96
  },
  {
    "COMPOUND": "O=C(CCc1ccccc1)N1CCC2(CCc3cc(F)ccc3O2)CC1",
    "READOUT": "pIC50",
    "OBSERVED": 8.00
  },
  {
    "COMPOUND": "O=C(c1ccc(C(F)(F)F)cc1)N1CCC2(CCc3ccccc3O2)CC1",
    "READOUT": "pIC50",
    "OBSERVED": 8.00
  }
]

Ask: Recorded pIC50 for `CS(=O)(=O)c1ccc2c(c1)CCC1(CCN(C(=O)c3ccc(C(F)(F)F)cc3)CC1)O2` with Bifunctional epoxide hydrolase 2 (Rattus norvegicus), please?
Reply: 7.72

====

Overview of recorded pIC50 for various compounds
EXPERIMENTAL TARGET: Sodium channel protein type 5 subunit alpha (Homo sapiens)
Sequence (Q14524 whole entry): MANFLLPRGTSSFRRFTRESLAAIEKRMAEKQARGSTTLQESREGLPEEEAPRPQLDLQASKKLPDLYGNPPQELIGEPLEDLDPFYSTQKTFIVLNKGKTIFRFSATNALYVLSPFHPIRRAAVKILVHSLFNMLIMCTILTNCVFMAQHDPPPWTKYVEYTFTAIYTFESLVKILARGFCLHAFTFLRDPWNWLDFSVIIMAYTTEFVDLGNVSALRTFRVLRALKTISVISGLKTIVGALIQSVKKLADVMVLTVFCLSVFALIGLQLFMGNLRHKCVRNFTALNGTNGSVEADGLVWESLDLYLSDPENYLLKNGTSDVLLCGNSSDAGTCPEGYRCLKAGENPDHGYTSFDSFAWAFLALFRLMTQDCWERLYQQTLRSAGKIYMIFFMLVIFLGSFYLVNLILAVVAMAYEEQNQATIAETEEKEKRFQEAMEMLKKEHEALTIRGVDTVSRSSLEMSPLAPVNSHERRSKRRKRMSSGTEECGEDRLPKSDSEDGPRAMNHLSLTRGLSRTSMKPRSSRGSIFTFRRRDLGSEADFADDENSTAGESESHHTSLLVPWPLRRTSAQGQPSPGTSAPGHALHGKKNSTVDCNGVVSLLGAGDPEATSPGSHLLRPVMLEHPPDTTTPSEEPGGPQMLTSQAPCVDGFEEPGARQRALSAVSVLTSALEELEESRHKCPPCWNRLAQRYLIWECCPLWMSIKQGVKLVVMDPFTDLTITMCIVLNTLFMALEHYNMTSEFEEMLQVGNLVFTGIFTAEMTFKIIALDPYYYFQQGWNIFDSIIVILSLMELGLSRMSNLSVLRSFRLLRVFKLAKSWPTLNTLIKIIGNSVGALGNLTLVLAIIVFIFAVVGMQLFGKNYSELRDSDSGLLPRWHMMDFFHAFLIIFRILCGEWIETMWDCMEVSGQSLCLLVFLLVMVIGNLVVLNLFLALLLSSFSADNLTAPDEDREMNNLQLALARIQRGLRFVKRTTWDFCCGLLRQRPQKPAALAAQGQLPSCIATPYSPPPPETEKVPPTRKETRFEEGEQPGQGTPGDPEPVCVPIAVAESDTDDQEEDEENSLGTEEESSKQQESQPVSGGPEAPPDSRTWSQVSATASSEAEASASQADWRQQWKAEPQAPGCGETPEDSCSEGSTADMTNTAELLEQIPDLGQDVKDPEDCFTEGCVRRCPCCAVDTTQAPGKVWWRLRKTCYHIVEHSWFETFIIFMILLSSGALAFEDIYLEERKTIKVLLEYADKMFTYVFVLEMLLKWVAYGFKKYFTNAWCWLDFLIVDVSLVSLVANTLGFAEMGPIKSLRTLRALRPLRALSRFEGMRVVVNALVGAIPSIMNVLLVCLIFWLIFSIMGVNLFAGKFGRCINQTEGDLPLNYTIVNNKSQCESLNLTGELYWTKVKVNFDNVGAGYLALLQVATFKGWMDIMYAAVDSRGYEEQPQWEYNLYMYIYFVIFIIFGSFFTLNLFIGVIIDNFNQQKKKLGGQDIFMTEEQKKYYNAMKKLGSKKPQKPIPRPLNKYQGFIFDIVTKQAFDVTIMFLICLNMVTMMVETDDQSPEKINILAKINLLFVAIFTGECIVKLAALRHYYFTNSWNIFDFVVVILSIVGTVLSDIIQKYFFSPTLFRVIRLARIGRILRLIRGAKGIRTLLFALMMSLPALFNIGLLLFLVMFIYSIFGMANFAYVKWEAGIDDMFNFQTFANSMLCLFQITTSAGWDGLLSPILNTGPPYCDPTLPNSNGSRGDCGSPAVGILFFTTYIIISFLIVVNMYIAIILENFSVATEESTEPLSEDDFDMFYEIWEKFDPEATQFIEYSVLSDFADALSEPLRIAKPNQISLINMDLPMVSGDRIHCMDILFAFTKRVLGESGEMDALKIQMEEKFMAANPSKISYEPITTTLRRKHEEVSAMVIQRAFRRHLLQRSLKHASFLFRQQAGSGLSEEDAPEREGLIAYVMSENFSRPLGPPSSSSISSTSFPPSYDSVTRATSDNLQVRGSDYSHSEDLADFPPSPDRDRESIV
EXPERIMENT NOTES: Inhibition of Voltage-gated sodium channel subunit alpha Nav1.5
pIC50: −log10 of the molar value.

As a guide, the following entries are already answered.
[
  {
    "COMPOUND": "O=C1CC2(CCN(C(=O)NC3CCc4ccccc4C3)CC2)Oc2ccccc21 (racemic)",
    "pIC50": 6.00
  },
  {
    "COMPOUND": "CS(=O)(=O)c1ccc2c(c1)C(=O)CC1(CCN(C(=O)N[C@H]3C[C@@H]3c3ccccc3)CC1)O2 (racemic)",
    "pIC50": "< 5.00"
  },
  {
    "COMPOUND": "O=C(N[C@H]1C[C@@H]1c1ccccc1)N1CCC2(CCc3cc(F)ccc3O2)CC1 (racemic)",
    "pIC50": "< 5.00"
  },
  {
    "COMPOUND": "Cn1nccc1Nc1ccc2c(c1)C(=O)CC1(CCN(C(=O)N[C@H]3C[C@@H]3c3ccccc3)CC1)O2 (racemic)",
    "pIC50": "< 5.00"
  },
  {
    "COMPOUND": "O=C(N[C@H]1C[C@@H]1c1ccccc1)N1CCC2(CCc3ccccc3O2)CC1 (racemic)",
    "pIC50": "< 5.00"
  },
  {
    "COMPOUND": "O=C(CCc1ccccc1)N1CCC2(CCc3cc(F)ccc3O2)CC1",
    "pIC50": "> 5.00"
  },
  {
    "COMPOUND": "O=C(c1ccc(C(F)(F)F)cc1)N1CCC2(CCc3ccccc3O2)CC1",
    "pIC50": "< 5.00"
  }
]

Turning now to a further compound:
Ask: Which value of pIC50 has been reported for O=C1CC2(CCN(C(=O)N[C@H]3C[C@@H]3c3ccccc3)CC2)Oc2ccccc21 (relative stereo) in the records?
Reply: < 5.00
